Read-out: E-selectin (Homo sapiens) (UniProt P16581)
Sequence (P16581 whole entry, looked up): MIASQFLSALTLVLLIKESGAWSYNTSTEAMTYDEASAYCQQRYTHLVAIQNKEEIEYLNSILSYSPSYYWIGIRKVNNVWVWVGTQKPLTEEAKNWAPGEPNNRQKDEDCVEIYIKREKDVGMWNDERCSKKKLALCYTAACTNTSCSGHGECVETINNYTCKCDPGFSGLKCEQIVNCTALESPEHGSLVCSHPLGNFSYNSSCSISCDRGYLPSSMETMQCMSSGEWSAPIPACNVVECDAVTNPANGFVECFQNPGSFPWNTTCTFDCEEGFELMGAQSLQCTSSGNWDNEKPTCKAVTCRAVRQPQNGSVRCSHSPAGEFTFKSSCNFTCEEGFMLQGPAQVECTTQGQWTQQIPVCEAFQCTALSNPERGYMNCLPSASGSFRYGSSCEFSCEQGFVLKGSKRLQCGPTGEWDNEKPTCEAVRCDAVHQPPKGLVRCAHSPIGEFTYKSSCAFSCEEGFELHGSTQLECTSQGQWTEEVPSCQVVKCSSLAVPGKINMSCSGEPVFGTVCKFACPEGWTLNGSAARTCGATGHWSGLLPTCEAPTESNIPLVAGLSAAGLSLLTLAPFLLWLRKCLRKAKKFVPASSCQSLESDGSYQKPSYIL
assay.text: BSK_SAg_Eselectin: BioMAP Diversity Plus: SAg Assay for Eselectin Biomarker Activity (AID 2283091)
measurement.parameters: primary human HUVEC with PBMC; actives raise or lower the signal
Active and inactive are the calls of the source. Rule for the calls: active = hit-call score of the fitted dose curve at least 0.9, where 1 is the maximum; inactive = score below 0.9.
Respond using exactly one of the listed classes: Yes for active, No for inactive

Cc1c([N+](=O)[O-])c(C)c([N+](=O)[O-])c(C(C)(C)C)c1[N+](=O)[O-]: No
Cc1ccccc1OP(=O)(Oc1ccccc1)Oc1ccccc1: Yes
Cc1ccc(OP(=O)(Oc2ccc(C)cc2C)Oc2ccc(C)cc2C)c(C)c1: No

Prompt: Please indicate how the test categorized `COc1ccccc1N` .
Response: No

Prompt: Please indicate how the test categorized `O=C(CCl)NCO` .
Response: No

Prompt: Please indicate how the test categorized `Nc1ccc(N)cc1` .
Response: No

Prompt: Please indicate how the test categorized `CC(C)(C)c1ccccc1O` .
Response: No

###

assay.text: ATG_FoxO_CIS: Attagene CIS-FACTORIAL HepG2 Assay for human Forkhead box O (FoxO) (AID 2282943)
measurement.parameters: HepG2 Attagene cis-reporter, FoxO element, mRNA; actives raise or lower the signal
Calls of active or inactive are those of the source. How the source made its calls: active means hit-call score of the fitted dose curve at least 0.9, where 1 is the maximum; inactive means score below 0.9.
Respond using exactly one of the listed classes: true (1) (active), false (0) (inactive)

c1ccc2sc(SNC3CCCCC3)nc2c1: false (0)
O=C1C=CC(=O)c2ccccc21: false (0)
CCCCN(CCCC)C(=S)[S-].CCCCN(CCCC)C(=S)[S-].[Ni+2]: false (0)
OC(Cc1ccccc1Cl)(Cn1[nH]cnc1=S)C1(Cl)CC1 (stereo not given): false (0)
CC(c1ccc(O)cc1)c1ccc(O)cc1: false (0)
BrCC(Br)c1ccccc1 (stereo not given): false (0)
CC(=O)CN(CC(C)=O)N=O: false (0)
O=c1[nH]c2ccccc2n1C1CCN(CCCC(c2ccc(F)cc2)c2ccc(F)cc2)CC1: false (0)

Prompt: Please indicate how the test categorized `COC(=O)Nc1cccc(OC(=O)Nc2cccc(C)c2)c1` .
Response: false (0)

Prompt: Please indicate how the test categorized CCC(C)(C#N)N=NC(C)(C#N)CC (stereo not given) .
Response: false (0)

Prompt: Please indicate how the test categorized `C[C@]12CC[C@@H](O)C[C@@H]1CC[C@@H]1[C@@H]2CC[C@]2(C)C(=O)CC[C@@H]12` .
Response: false (0)

###

tgt: Tyrosine-protein phosphatase non-receptor type 11 (Homo sapiens)
assay.text: NVS_ENZ_hPTPN11: NovaScreen (NVS) Enzymatic Assay for human Protein Tyrosine Phosphatase Non-receptor Type 11 (PTPN11) (AID 2283202)
Inconclusive results are not listed. Activity calls are given as the source filed them. Rule for the calls: active = hit-call score of the fitted dose curve at least 0.9, where 1 is the maximum; inconclusive = response in the unintended direction; inactive = score below 0.9.
observable: AC50

Take a look at these entries with their results.
O=C1c2ccccc2C(=O)C1C(=O)C(c1ccccc1)c1ccc(Cl)cc1 (centres undefined): 9.45 µM (active)
COc1nn(C(=O)NS(=O)(=O)c2ccccc2OC(F)(F)F)c(=O)n1C: 13.3 µM (active)

Field: next compound
Recorded AC50 (compound `CCCCCCCCCCCCc1cccc(S(=O)(=O)O)c1` ): 22.5 µM (active)

###

Read-out: Low-density lipoprotein receptor (LDLR), LDLR (gene 3949)
assay.text: BSK_CASM3C_LDLR: BioMAP Diversity Plus: CASM3C Assay for Low-density lipoprotein receptor (LDLR) Biomarker Activity (AID 2283045);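 note: LDLR protein level on the cell surface quantified by ELISA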
measurement.parameters: primary human coronary artery smooth muscle cells; actives raise or lower the signal
Activity calls are given as the source filed them. Rule for the calls: active = hit-call score of the fitted dose curve at least 0.9, where 1 is the maximum; inactive = score below 0.9.
Respond using exactly one of the listed classes: active, inactive

Use the examples below as a reference point.
Cc1c([N+](=O)[O-])c(C)c([N+](=O)[O-])c(C(C)(C)C)c1[N+](=O)[O-]: inactive
COc1ccccc1N: inactive
CCCCCCCCCCCCN(C)C: active
Cc1cc(C)cc(C)c1: inactive
Oc1cccc(-c2ccccc2)c1: inactive

Prompt: Please indicate how the test categorized `Oc1c(Br)cc(Br)cc1Br` .
Response: inactive

###

assay.text: CCTE_Shafer_MEA_dev_per_network_spike_spike_number_mean: CCTE's Neural Network Formation Assay for Mean Number of Spikes in a Network Spike, Shafer Lab (AID 2284053)
Calls of active or inactive are those of the source. Rule for the calls: active = hit-call score of the fitted dose curve at least 0.9, where 1 is the maximum; inactive = score below 0.9.
Respond using exactly one of the listed classes: active, inactive

Use the examples below as a reference point.
C=CC(F)(C(F)(F)F)C(F)(F)C(F)(F)F (configuration not stated): inactive
CC(=O)C(F)(F)C(F)(F)F: inactive
CC(C)[C@@H](Nc1ccc(C(F)(F)F)cc1Cl)C(=O)OC(C#N)c1cccc(Oc2ccccc2)c1 (some centres not stated): inactive

Prompt: Please indicate how the test categorized `CC1(C)[C@H](C(=O)O[C@H](C#N)c2cccc(Oc3ccccc3)c2)[C@@H]1/C=C(\Cl)C(F)(F)F` .
Response: active

###

Read-out: Monokine induced gamma interferon (MIG), CXCL9 (gene 4283)
assay.text: BSK_hDFCGF_MIG: BioMAP Diversity Plus: hDFCGF Assay for Monokine induced gamma interferon (MIG) Biomarker Activity (AID 2283063)
measurement.parameters: primary human foreskin fibroblasts; actives raise or lower the signal
Active and inactive are the calls of the source. How the source made its calls: active means hit-call score of the fitted dose curve at least 0.9, where 1 is the maximum; inactive means score below 0.9.
Respond using exactly one of the listed classes: active, inactive

Use the examples below as a reference point.
Oc1c(Br)cc(Br)cc1Br: inactive
CCCCOC(=O)COC(=O)c1ccccc1C(=O)OCCCC: inactive
O=c1oc2ccccc2c(O)c1C(CC(O)c1ccc(-c2ccc(Br)cc2)cc1)c1ccccc1 (stereo not drawn): active
NC(=O)CCl: inactive
CCOP(=S)(OCC)SCS(=O)(=O)C(C)(C)C: inactive
Nc1ccc(N)cc1: inactive
COCC(=O)N(c1c(C)cccc1C)[C@H](C)C(=O)OC: inactive
Cc1ccccc1OP(=O)(Oc1ccccc1)Oc1ccccc1: active
CC(C=O)Cc1ccc2c(c1)OCO2 (stereo not drawn): inactive
O=C(O)COc1cc(Cl)c(Cl)cc1Cl: inactive

Prompt: Please indicate how the test categorized `O=S(=O)(C(Cl)(Cl)Cl)C(Cl)(Cl)Cl` .
Response: active

Prompt: Please indicate how the test categorized `Cc1c([N+](=O)[O-])c(C)c([N+](=O)[O-])c(C(C)(C)C)c1[N+](=O)[O-]` .
Response: inactive

Prompt: Please indicate how the test categorized `Oc1cccc(-c2ccccc2)c1` .
Response: inactive

###

tgt: X-box-binding protein 1 (Homo sapiens)
assay.text: ATG_Xbp1_CIS: Attagene CIS-FACTORIAL HepG2 Assay for human X-box Binding Protein 1 (XBP1) (AID 2282972)
measurement.parameters: HepG2 XBP1 cis-element reporter, Attagene multiplex; actives raise or lower the signal
Description: ATG_CIS is a cell-based, multiplexed-readout assay that uses HepG2, a human liver cell line, with measurements taken at 24 hours after chemical dosing in a 24-well plate.ATG_Xbp1_CIS is one of 52 assay component(s) measured or calculated from the ATG_CIS assay. […] This assay endpoint, ATG_Xbp1_CIS, was analyzed with bidirectional fitting relative to DMSO as the negative control and baseline of activity. […]
Calls of active or inactive are those of the source. The calls were made as follows: active = hit-call score of the fitted dose curve at least 0.9, where 1 is the maximum; inactive = score below 0.9.
observable: outcome

Cl[C@H]1OCCO[C@@H]1Cl: inactive
CC(C)[C@@H](Nc1ccc(C(F)(F)F)cc1Cl)C(=O)OC(C#N)c1cccc(Oc2ccccc2)c1 (some centres not stated): inactive
CC(=O)CN(CC(C)=O)N=O: inactive
COc1ccc([N+](=O)[O-])cc1O: inactive
O=C(CBr)c1ccc(O)cc1: inactive

For Cc1cc(Cl)ccc1OC(C)C(=O)O (configuration not stated) on X-box-binding protein 1 (Homo sapiens), measured outcome was inactive

For `CCCCCCCCCCCCc1cccc(S(=O)(=O)O)c1` on X-box-binding protein 1 (Homo sapiens), measured outcome was inactive

###

assay.text: CCTE_Shafer_MEA_dev_spike_duration_mean: CCTE's Neural Network Formation Assay for Mean Spike Duration, Shafer Lab (AID 2284051);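 note: mean network spike duration pooled as area under curve over DIV 5 to 12 recordings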
Description: CCTE_Shafer_MEA_dev assay is conducted using Axion Biosystems 48 well microelectrode array (MEA) plates and Maestro recording system. Each well of the MEA plate contains a grid of 16 microelectrodes embedded in the culture surface. Electrically active cells, such as neurons, can be cultured over the electrodes, and electrical activity in these cells can be recorded extracellularly. […]
Active and inactive are the calls of the source. Rule for the calls: active = hit-call score of the fitted dose curve at least 0.9, where 1 is the maximum; inactive = score below 0.9.
Respond using exactly one of the listed classes: YES = active, NO = inactive

NC(=O)c1ccc(N)nc1: YES
C=CCOC(F)(C(F)(F)F)C(F)(F)F: NO

Prompt: Please indicate how the test categorized `CC(=O)C(F)(F)C(F)(F)F` .
Response: NO

###

assay.text: BSK_3C_Proliferation: Cell Proliferation Assessment in the BioMAP Diversity Plus: 3C Assay (AID 2283006)
measurement.parameters: primary human endothelial cells (HUVEC)
Calls of active or inactive are those of the source. Rule for the calls: active = hit-call score of the fitted dose curve at least 0.9, where 1 is the maximum; inactive = score below 0.9.
Respond using exactly one of the listed classes: active, inactive

Use the examples below as a reference point.
O=C(N[C@H]1CN2CCC1CC2)c1ccc2c(c1)OCCO2: inactive
Clc1cccc(Cl)c1: inactive
Cc1cc(Cl)ccc1N: active
c1ccc(-c2cccc(-c3ccccc3)c2)cc1: active
CC(C=O)Cc1ccc2c(c1)OCO2 (centres undefined): inactive

Prompt: Please indicate how the test categorized `O=[N+]([O-])c1ccc(Nc2ccccc2)cc1` .
Response: inactive

Prompt: Please indicate how the test categorized `Cc1ccc(OP(=O)(Oc2ccc(C)cc2C)Oc2ccc(C)cc2C)c(C)c1` .
Response: active
